- Tested on: SUDV Boniface
- METHOD_DESCRIPTION: microbe, parasite or virus in culture
- Type: cell-based, Sudan virus
- ASSAY_CONTEXT: Sudan ebolavirus, HeLa; n = 9; read-out: RDV activity against SUDV EC50
EXPERIMENTAL_ENDPOINT: EC50 (nM)
Kindly answer with a numeric value in nM, unit omitted.

For record CCC(CC)COC(=O)[C@H](C)N[P@](=O)(OC[C@H]1O[C@@](C#N)(c2ccc3c(N)ncnn23)[C@H](O)[C@@H]1O)Oc1ccccc1 [RDV, Remdesivir] the listed EC50 is 308

---

- METHOD_DESCRIPTION: in vitro
- ASSAY_CONTEXT: human, RDV CC50 (SUDV assay)
EXPERIMENTAL_ENDPOINT: CC50

For record CCC(CC)COC(=O)[C@H](C)N[P@](=O)(OC[C@H]1O[C@@](C#N)(c2ccc3c(N)ncnn23)[C@H](O)[C@@H]1O)Oc1ccccc1 [RDV, Remdesivir] the listed CC50 is > 2.5 µM
